# System: HeLa Kyoto
# test: solubility change mitosis vs G1/S (difference of NP-40 vs SDS log2 ratios) (log2 ratio difference); higher = more soluble in mitosis
readout: solubility change mitosis (log2)
// return a plain number; no unit text

Give its solubility change mitosis (log2) value. Item: MRFLAATFLLLALSTAAQAEPVQFKDCGSVDGVIKEVNVSPCPTQPCQLSKGQSYSVNVTFTSNIQSKSSKAVVHGILMGVPVPFPIPEPDGCKSGINCPIQKDKTYSYLNKLPVKSEYPSIKLVVEWQLQDDKNQSLFCWEIPVQIVSHL [NPC2] 0.0342

Subsequent entry: MATSRYEPVAEIGVGAYGTVYKARDPHSGHFVALKSVRVPNGGGGGGGLPISTVREVALLRRLEAFEHPNVVRLMDVCATSRTDREIKVTLVFEHVDQDLRTYLDKAPPPGLPAETIKDLMRQFLRGLDFLHANCIVHRDLKPENILVTSGGTVKLADFGLARIYSYQMALTPVVVTLWYRAPEVLLQSTYATPVDMWSVGCIFAEMFRRKPLFCGNSEADQLGKIFDLIGLPPEDDWPRDVSLPRGAFPPRGPRPVQSVVPEMEESGAQLLLEMLTFNPHKRISAFRALQHSYLHKDEGNPE [CDK4] -0.121

Subsequent entry: MGEFNEKKTTCGTVCLKYLLFTYNCCFWLAGLAVMAVGIWTLALKSDYISLLASGTYLATAYILVVAGTVVMVTGVLGCCATFKERRNLLRLYFILLLIIFLLEIIAGILAYAYYQQLNTELKENLKDTMTKRYHQPGHEAVTSAVDQLQQEFHCCGSNNSQDWRDSEWIRSQEAGGRVVPDSCCKTVVALCGQRDHASNIYKVEGGCITKLETFIQEHLRVIGAVGIGIACVQVFGMIFTCCLYRSLKLEHY [CD151] 0.0099

---

# Tested on: HeLa Kyoto
# test: solubility change mitosis vs G1/S (difference of NP-40 vs SDS log2 ratios) (log2 ratio difference); higher = more soluble in mitosis
readout: solubility change mitosis (log2)
// return a plain number; no unit text

Give its solubility change mitosis (log2) value. Item: MAEVKVKVQPPDADPVEIENRIIELCHQFPHGITDQVIQNEMPHIEAQQRAVAINRLLSMGQLDLLRSNTGLLYRIKDSQNAGKMKGSDNQEKLVYQIIEDAGNKGIWSRDIRYKSNLPLTEINKILKNLESKKLIKAVKSVAASKKKVYMLYNLQPDRSVTGGAWYSDQDFESEFVEVLNQQCFKFLQSKAETARESKQNPMIQRNSSFASSHEVWKYICELGISKVELSMEDIETILNTLIYDGKVEMTIIAAKEGTVGSVDGHMKLYRAVNPIIPPTGLVRAPCGLCPVFDDCHEGGEISPSNCIYMTEWLEF [POLR3F] -0.0255

---

# Test system: HeLa Kyoto
# test: melting temperature (median over replicates), in situ; higher = more thermally stable
# test-context: cell cycle stage: G1/S
readout: melting temperature (°C)
Answer in °C, number only, no unit symbol.

Give its melting temperature value. Item: MAEAEESPGDPGTASPRPLFAGLSDISISQDIPVEGEITIPMRSRIREFDSSTLNESVRNTIMRDLKAVGKKFMHVLYPRKSNTLLRDWDLWGPLILCVTLALMLQRDSADSEKDGGPQFAEVFVIVWFGAVTITLNSKLLGGNISFFQSLCVLGYCILPLTVAMLICRLVLLADPGPVNFMVRLFVVIVMFAWSIVASTAFLADSQPPNRRALAVYPVFLFYFVISWMILTFTPQ [YIPF6] 55

Subsequent entry: ARHGAP35 48.6

Subsequent entry: MRSGEELDGFEGEASSTSMISGASSPYQPTTEPVSQRRGLAGLRCDPDYLRGALGRLKVAQVILALIAFICIETIMACSPCEGLYFFEFVSCSAFVVTGVLLIMFSLNLHMRIPQINWNLTDLVNTGLSAFLFFIASIVLAALNHRAGAEIAAVIFGFLATAAYAVNTFLAVQKWRVSVRQQSTNDYIRARTESRDVDSRPEIQRLDTFSYSTNVTVRKKSPTNLLSLNHWQLA [CMTM4] 58.1

Subsequent entry: MSSHKGSVVAQGNGAPASNREADTVELAELGPLLEEKGKRVIANPPKAEEEQTCPVPQEEEEEVRVLTLPLQAHHAMEKMEEFVYKVWEGRWRVIPYDVLPDWLKDNDYLLHGHRPPMPSFRACFKSIFRIHTETGNIWTHLLGFVLFLFLGILTMLRPNMYFMAPLQEKVVFGMFFLGAVLCLSFSWLFHTVYCHSEKVSRTFSKLDYSGIALLIMGSFVPWLYYSFYCSPQPRLIYLSIVCVLGISAIIVAQWDRFATPKHRQTRAGVFLGLGLSGVVPTMHFTIAEGFVKATTVGQMGWFFLMAVMYITGAGLYAARIPERFFPGKFDIWFQSHQIFHVLVVAAAFVHFYGVSNLQEFRYGLEGGCTDDTLL [ADIPOR1] 55.6

Subsequent entry: ARFGAP2 49.6

Subsequent entry: MSEEQFGGDGAAAAATAAVGGSAGEQEGAMVAATQGAAAAAGSGAGTGGGTASGGTEGGSAESEGAKIDASKNEEDEGHSNSSPRHSEAATAQREEWKMFIGGLSWDTTKKDLKDYFSKFGEVVDCTLKLDPITGRSRGFGFVLFKESESVDKVMDQKEHKLNGKVIDPKRAKAMKTKEPVKKIFVGGLSPDTPEEKIREYFGGFGEVESIELPMDNKTNKRRGFCFITFKEEEPVKKIMEKKYHNVGLSKCEIKVAMSKEQYQQQQQWGSRGGFAGRARGRGGGPSQNWNQGYSNYWNQGYGNYGYNSQGYGGYGGYDYTGYNNYYGYGDYSNQQSGYGKVSRRGGHQNSYKPY [HNRNPD] 55.6

Subsequent entry: MGNSALRAHVETAQKTGVFQLKDRGLTEFPADLQKLTSNLRTIDLSNNKIESLPPLLIGKFTLLKSLSLNNNKLTVLPDEICNLKKLETLSLNNNHLRELPSTFGQLSALKTLSLSGNQLGALPPQLCSLRHLDVMDLSKNQIRSIPDSVGELQVIELNLNQNQISQISVKISCCPRLKILRLEENCLELSMLPQSILSDSQICLLAVEGNLFEIKKLRELEGYDKYMERFTATKKKFA [LRRC57] 53.2
